# solubility at 24 h per entry
Assay: Compound solubility determination (gross and equilibrium solubility; FaSSIF, FeSSIF, pH 7.4 PBS, pH 1.0 0.1N HCl, pH 4.5 sodium citrate)
Type: physicochemical
Conditions: FeSSIF (fed state simulated intestinal fluid), fessif, thermodynamic from solid; read-out: Solubility in FeSSIF

As a guide, the following entries are already answered.
>>> data_value("Cc1[nH]c(C)c(-c2ccc(-c3cc(C(F)(F)F)ccc3F)nc2)c(=O)c1Cl")
"10 to 50 µg/mL"
>>> data_value("Cc1[nH]c(C)c(-c2ccc(-c3ccc(Cl)cc3)nc2)c(=O)c1Br")
"5 to 10 µg/mL"

Consider the molecule Cc1nc(C)c(-c2ccc(-c3ccc(Cl)cc3)cc2)c(O)c1Br and give its measured solubility at 24 h.
5 to 10 µg/mL

Same again, this time with Cc1[nH]c(C)c(-c2cnc(-c3ccc(OC(F)(F)F)cc3)nc2)c(=O)c1Cl
5 to 10 µg/mL

Same again, this time with Cc1[nH]c(C)c(-c2ccc(Oc3ccc(OC(F)(F)F)cc3)cc2)c(=O)c1Cl
1 to 5 µg/mL

Same again, this time with Cc1[nH]c(C)c(-c2ccc(-c3ccc(C(F)(F)F)cc3F)nc2)c(=O)c1Cl
1 to 5 µg/mL

Same again, this time with Cc1[nH]c(C)c(-c2ccc(-c3cc(C(F)(F)F)ccc3Cl)nc2)c(=O)c1Cl
10 to 50 µg/mL

---

Test: Compound solubility determination (gross and equilibrium solubility; FaSSIF, FeSSIF, pH 7.4 PBS, pH 1.0 0.1N HCl, pH 4.5 sodium citrate)
Type: physicochemical
Conditions: FaSSIF (fasted state simulated intestinal fluid), fassif, thermodynamic from solid; read-out: Solubility in FaSSIF
quantity_measured: solubility at 24 h

As a guide, the following entries are already answered.
>>> data_value("Cc1[nH]c(C)c(-c2ccc(-c3ccccc3Cl)nc2)c(=O)c1Br [Example 21]")
"5 to 10 µg/mL"
>>> data_value("Cc1[nH]c(C)c(-c2ccc(-c3ccc4c(c3)OCO4)nc2)c(=O)c1Br [Example 53]")
"5 to 10 µg/mL"
>>> data_value("Cc1[nH]c(C)c(-c2cnc(-c3ccc(OC(F)(F)F)cc3)nc2)c(=O)c1Cl [Example 51]")
"1 to 5 µg/mL"

Consider the compound Cc1[nH]c(C)c(-c2ccc(-c3cccc(Cl)c3)nc2)c(=O)c1Br [Example 20] and give its measured solubility at 24 h.
< 1 µg/mL

Same again, this time with Cc1[nH]c(C)c(-c2ccc(Oc3ccc(OC(F)(F)F)cc3)nc2)c(=O)c1Cl [Example 49]
< 1 µg/mL

Same again, this time with Cc1[nH]c(C)c(-c2ccc(-c3cccc(C(F)(F)F)c3)nc2)c(=O)c1Br [Example 17]
1 to 5 µg/mL

---

Assay: Compound solubility determination (gross and equilibrium solubility; FaSSIF, FeSSIF, pH 7.4 PBS, pH 1.0 0.1N HCl, pH 4.5 sodium citrate)
Type: physicochemical
Details: sodium citrate 0.5M solution, aqueous buffer, thermodynamic from solid; pH 4.5 (Na citrate); read-out: Solubility at pH 4.5 (Na citrate)
quantity_measured: solubility at 24 h

>>> data_value("Cc1[nH]c(C)c(-c2ccc(Oc3ccc(OC(F)(F)F)cc3)nc2)c(=O)c1Cl [Example 49]")
"< 1 µg/mL"

Consider the compound Cc1[nH]c(C)c(-c2ccc(-c3cccc(C(F)(F)F)c3)nc2)c(=O)c1Br [Example 17] and give its measured solubility at 24 h.
< 1 µg/mL

Same again, this time with Cc1[nH]c(C)c(-c2ccc(-c3cccc(Cl)c3)nc2)c(=O)c1Br [Example 20]
< 1 µg/mL

Same again, this time with Cc1[nH]c(C)c(-c2ccc(CCc3cccc(C(F)(F)F)c3)nc2)c(=O)c1Cl [Example 44]
10 to 50 µg/mL

Same again, this time with Cc1[nH]c(C)c(-c2ccc(-c3ccc(C(F)(F)F)cc3F)nc2)c(=O)c1Cl [Example 58]
< 1 µg/mL

Same again, this time with CCCCCCCc1ccc(-c2c(C)[nH]c(C)c(Cl)c2=O)cn1.Cl [Example 48]
≥ 50 µg/mL
